target: Platelet-activating factor receptor (Homo sapiens); type: tissue-based; also: in other assays of this panel Not Active means under 50% inhibition at 10 µM
Sequence (P25105 whole entry): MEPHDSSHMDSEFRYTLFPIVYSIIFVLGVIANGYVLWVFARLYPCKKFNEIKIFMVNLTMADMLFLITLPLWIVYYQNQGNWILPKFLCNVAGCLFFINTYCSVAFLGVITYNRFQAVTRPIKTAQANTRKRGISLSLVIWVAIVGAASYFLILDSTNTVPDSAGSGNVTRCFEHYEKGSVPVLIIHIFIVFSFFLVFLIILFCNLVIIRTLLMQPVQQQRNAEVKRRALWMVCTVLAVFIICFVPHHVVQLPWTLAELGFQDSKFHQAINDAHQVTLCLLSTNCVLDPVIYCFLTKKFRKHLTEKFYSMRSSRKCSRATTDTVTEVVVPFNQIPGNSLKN

molecule | IC50
C#C[C@]1(O)CC[C@H]2[C@@H]3CCC4=CC(=O)CC[C@]4(C)[C@H]3CC[C@@]21C [ETHISTERONE] | Not Active
CN(C)C(=O)C(CCN1CCC(O)(c2ccc(Cl)cc2)CC1)(c1ccccc1)c1ccccc1 [LOPERAMIDE] | Not Active
CCN(CC)CCNC(=O)c1ccc(N)cc1 [PROCAINAMIDE] | Not Active
COc1ccnc(C[S+]([O-])c2nc3ccc(OC(F)F)cc3[nH]2)c1OC (stereo not drawn) [PANTOPRAZOLE] | Not Active
O=c1c(-c2ccc(O)cc2)coc2cc(O)cc(O)c12 [GENISTEIN] | Not Active
O=C(O)CCNC(=O)c1ccc(/N=N/c2ccc(O)c(C(=O)O)c2)cc1 [BALSALAZIDE] | Not Active
CCOC(=O)c1ncn2c1CN(C)C(=O)c1cc(F)ccc1-2 [FLUMAZENIL] | Not Active
CCN(C(C)=O)c1cccc(-c2ccnc3c(C#N)cnn23)c1 [ZALEPLON] | Not Active
CC(C)NCC(O)c1ccccc1Cl (stereo not drawn) [CLORPRENALINE] | Not Active
CN1[C@@H]2CC[C@H]1C[C@@H](OC(c1ccccc1)c1ccccc1)C2 [BENZTROPINE] | Not Active
C[C@@H]1C/C=C/C=C/C=C/C=C/[C@H](O[C@@H]2O[C@H](C)[C@@H](O)[C@H](N)[C@@H]2O)C[C@@H]2O[C@](O)(C[C@@H](O)C[C@H]3O[C@@H]3/C=C/C(=O)O1)C[C@H](O)[C@H]2C(=O)O [NATAMYCIN] | Not Active
C[N+](C)(C)CCOC(=O)CCC(=O)OCC[N+](C)(C)C.[Cl-].[Cl-] [SUCCINYLCHOLINE CHLORIDE] | Not Active
O=C(c1ccccc1F)N1CCC(Cc2ccccc2)CC1 | Not Active
CCCNC(C)C(=O)Nc1ccccc1C (stereo not drawn) [PRILOCAINE] | Not Active
NCCCNCCSP(=O)(O)O [AMIFOSTINE] | Not Active
NS(=O)(=O)c1cc(C2(O)NC(=O)c3ccccc32)ccc1Cl (stereo not drawn) [CHLORTHALIDONE] | Not Active
CC1CCC(NC(=O)N(CCCl)N=O)CC1 (stereo not drawn) [SEMUSTINE] | Not Active
Cc1c(O)cccc1C(=O)N[C@@H](CSc1ccccc1)[C@H](O)CN1C[C@H]2CCCC[C@H]2C[C@H]1C(=O)NC(C)(C)C | Not Active

Values compiled from ChEMBL document CHEMBL1909046.
